- tgt: T1, human GIP receptor (human, UniProt P48546 22-466)
- T1 sequence (looked up): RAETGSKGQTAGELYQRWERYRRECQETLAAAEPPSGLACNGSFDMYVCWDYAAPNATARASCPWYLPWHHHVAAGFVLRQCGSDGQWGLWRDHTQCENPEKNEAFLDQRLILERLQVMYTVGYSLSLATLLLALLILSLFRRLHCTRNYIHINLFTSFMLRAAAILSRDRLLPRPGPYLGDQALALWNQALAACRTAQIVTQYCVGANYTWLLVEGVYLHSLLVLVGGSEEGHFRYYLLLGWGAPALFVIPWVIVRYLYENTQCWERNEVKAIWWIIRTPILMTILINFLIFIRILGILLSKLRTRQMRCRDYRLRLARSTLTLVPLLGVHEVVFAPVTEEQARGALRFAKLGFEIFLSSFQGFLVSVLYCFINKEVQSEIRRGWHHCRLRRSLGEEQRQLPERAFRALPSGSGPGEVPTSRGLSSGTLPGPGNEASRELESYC
- assayRemarks: cell-based or functional assay
*1 amine or outer side, *2 acyl side, *3 side chain or, on linkers, in order; H or OH if unused. Where no end group is shown, it is not given here. Side-chain parts run from the residue outwards. [ ]: non-standard residue; d: D form. The star is where a group is joined. C18 diacid = O=C(O)CCCCCCCCCCCCCCCCC(=O)*; γGlu = O=C(O)[C@H](CCC(=O)[*:2])N[*:1]; εLys = N[C@@H](CCCCN[*:1])C(=O)[*:2]; Aib = CC(C)(N)C(=O)O
recordedEndpoint: EC50, CreLuc reporter, 100% hP (nM)
Please give a number only; it is taken to be in nM.

[in] Quick one: EC50, CreLuc reporter, 100% hP for Y[Aib]EGTFTSDYSI[Aib]LEKQAQ[Aib]EFVRHLINK([εLys-γGlu-γGlu-γGlu-γGlu-γGlu-γGlu-γGlu-C18 diacid])LTRQRY-NH2 [Compound 32] ?
[out] 6.5

[in] Quick one: EC50, CreLuc reporter, 100% hP for YXEGTFTSDYSIXLEKQAQXAFVRHLIAKXTRQRY (Aib at 2, 13, 20, 30; Lys29 epsilon-amino acylated with C18DA-gGlu-gGlu-gGlu-gGlu-gGlu-gGlu-eLys; C-terminal amide) [Compound 68] ?
[out] 3

[in] Quick one: EC50, CreLuc reporter, 100% hP for YXEGTFTSDYSIXLELQAQXAFVRHLINKXTRQRY (Aib at 2, 13, 20, 30; Lys29 epsilon-amino acylated with C18DA-gGlu-gGlu-gGlu-gGlu-gGlu-gGlu-eLys; C-terminal amide) [Compound 65] ?
[out] 16.8

[in] Quick one: EC50, CreLuc reporter, 100% hP for YXEGTFTSDYSIXLEKQAQXAFIRHLINKXTRQRY (Aib at 2, 20, 30; aMeL at 13; Lys29 epsilon-amino acylated with C20DA-gGlu-gGlu-gGlu-gGlu-gGlu-gGlu-eLys; C-terminal amide) [Compound 53] ?
[out] 1.7

[in] Quick one: EC50, CreLuc reporter, 100% hP for YXEGTFTSDLSIXLEKQAQXAFIRHLINKXTRQRY (Aib at 2, 13, 20, 30; Lys29 epsilon-amino acylated with C20DA-gGlu-gGlu-gGlu-gGlu-gGlu-gGlu-eLys; C-terminal amide) [Compound 21] ?
[out] 5.6

[in] Quick one: EC50, CreLuc reporter, 100% hP for YXEGTFTSDYSIXLEKQAQXAFVRHLINKXTRQRY (Aib at 2, 13, 20, 30; NMeQ at 33; Lys29 epsilon-amino acylated with C18DA-gGlu-gGlu-gGlu-gGlu-gGlu-gGlu-eLys; C-terminal amide) [Compound 17] ?
[out] 2
